Data provenance: the supplement of paper PMC10981050

The entries below are paired with their reported cell viability.
System: K562
test.summary: cell viability relative to vehicle control; higher = less cytotoxic;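 further: after 48 h exposure read by CellTiter-Glo luminescence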
condition.notes: 10 µM; SRSF2 genotype: SRSF2 wt/wt
Express your answer as a number followed by its unit.

Worked examples, 4 molecules total:
Cc1ccc(-c2cc(C(F)(F)F)nn2-c2ccc(S(N)(=O)=O)cc2)cc1 [Celecoxib]	94.1%
Cc1ccccc1CN1C(=O)C2=C(CCN(Cc3ccccc3)C2)N2CCN=C12	44.5%
CN(C)c1ccc2nc3c(C(=O)O)cc(=O)c(O)c-3oc2c1 [Gallocyanine]	77.7%
CCc1ccc(Cc2ccc3c(c2)[C@]2(OC3)O[C@H](CO)[C@@H](O)[C@H](O)[C@H]2O)cc1 [Tofogliflozin(CSG 452)]	81.2%

Consider the molecule shown here: CC1(C)CCCC2(C)OC(=O)C=C12 (stereo not given) [Dihydroactinidiolide] What is its recorded cell viability?
94.5%

====

System: MARIMO
test.summary: cell viability relative to vehicle control; higher = less cytotoxic
condition.notes: 10 µM; SRSF2 genotype: SRSF2 P95H/wt
Output true for records whose cell viability is lower than 80%, false for records at or above 80%.

Sample answers from the record:
O=C(NC(NC(=S)Nc1ccc(F)c([N+](=O)[O-])c1)C(Cl)(Cl)Cl)C(c1ccccc1)c1ccccc1 (configuration not stated)	true
CN(C)c1nc(N(C)C)nc(N(C)C)n1 [Altretamine (Hexalen)]	false

Find out if reported cell viability for COc1cccc(-c2ccc(NC(=O)C3=C(C(=O)O)CCC3)c(F)c2)c1 [Vidofludimus] is less than 80%
false

Quick check: cell viability of O=C(N/N=C/c1cc(O)c(O)cc1O)c1cc2ccccc2cc1O [Dyngo-4a] under 80%?
true

State whether 80% exceeds cell viability recorded for O=c1cc(-c2ccc(O)cc2)oc2cccc(O)c12 [4',5-Dihydroxyflavone] .
false

Input CC[C@H]1OC(=O)[C@H](C)[C@@H](O[C@H]2C[C@@](C)(OC)[C@@H](O)[C@H](C)O2)[C@H](C)[C@@H](O[C@@H]2O[C@H](C)C[C@H](N(C)C)[C@H]2O)[C@](C)(O)C[C@@H](C)C(=O)[C@H](C)[C@@H](O)[C@]1(C)O [Erythromycin] ; condition: cell viability strictly below 80%. Does it hold?
false

====

Test system: OCI-AML2
test.summary: cell viability relative to vehicle control; higher = less cytotoxic
condition.notes: 10 µM; SRSF2 genotype: P95H/wt
Where a name gives a salt, the structure may show the parent alone.
recorded.metric: cell viability (%)
The reply should be a number in %, with the unit left off.

Previously resolved entries follow.
CCOC(=O)C1=C(N)Oc2ccc(Cl)cc2C1C(C#N)C(=O)OCC (stereo not given)	63.7
CC(C)=CC(=O)O[C@H]1Cc2cc3ccc(=O)oc3cc2OC1(C)C [Decursin]	83.7
C=C1C(=O)O[C@H]2[C@H]1CCC(C)=C1CC[C@@](C)(O)[C@@H]12 [Micheliolide]	5.22
Nc1nc(NCCc2ccc(O)cc2)nc2nc(-c3ccco3)nn12	97
COc1cc(C(=O)NC2CCCNC2)cc(OC)c1OC (stereo not given) [Troxipide]	99.7

Record lookup: for OCI-AML2, what cell viability belongs to CCOC(=O)c1cc(O)c(O)c(O)c1 [Ethyl gallate] ?
80.6

What value of cell viability on OCI-AML2 does Nc1ccc(S(=O)(=O)Nc2nccs2)cc1 [Sulfathiazole] have?
96

# value lookup — system OCI-AML2, readout cell viability, item CCCC(CCC)C(=O)O [Valproic acid sodium salt (Sodium valproate)]
89.8

Provide the documented cell viability with OCI-AML2 as the system for O=C(O)Cc1cccc2ccccc12 [1-Naphthaleneacetic acid]
104

Item: CC(C)[C@H](C(=O)Nc1ccc(C(=O)NO)cc1)c1ccccc1 Test system: OCI-AML2 Read-out: cell viability Value: ?
2.49

Under OCI-AML2: cell viability value of O=C(/C=C/c1ccc(O)c(O)c1)O[C@@H]1C[C@](O)(C(=O)O)C[C@@H](O)[C@H]1O [Chlorogenic acid] ?
99

// fetch OCI-AML2 cell viability for Cc1nc(-c2ccc(OCC(C)C)c(C#N)c2)sc1C(=O)O [Febuxostat (Uloric)]
119

What value of cell viability on OCI-AML2 does O=c1[nH]c(=O)c2[nH]cnc2[nH]1 [2,6-Dihydroxypurine] have?
101

Give OCI-AML2 cell viability for COc1cc(S(=O)(=O)O)ccc1O [Sulfogaiacol]
117

Identify the measured cell viability of COc1ccc2[nH]cc(CCNC(C)=O)c2c1 [Melatonin] for OCI-AML2.
118

Recorded cell viability for CNC[C@H](O)c1ccc(O)c(O)c1 [Epinephrine bitartrate (Adrenalinium)] with OCI-AML2, please?
102

====

Tested on: MARIMO
test.summary: cell viability relative to vehicle control; higher = less cytotoxic
condition.notes: 10 µM; SRSF2 genotype: SRSF2 wt/wt
Structures can show the parent of a compound that is named as a salt.
For each record, check the reported cell viability: if it is below 90% write Criterion met, else write Criterion not met.

Sample answers from the record:
Cc1[nH]nc2ccc(-c3cncc(OC[C@@H](N)Cc4ccccc4)c3)cc12	Criterion met
COc1cc(N2CCC(N(C)C)CC2)ccc1Nc1ncc(Cl)c(Nc2ccccc2P(C)(C)=O)n1	Criterion met
CCC(=O)OCC(=O)[C@@]1(OC(=O)CC)[C@@H](C)C[C@H]2[C@@H]3CCC4=CC(=O)C=C[C@]4(C)[C@@]3(F)[C@@H](O)C[C@@]21C [Betamethasone Dipropionate (Diprolene)]	Criterion not met
CCOc1cc(N2CCC(O)CC2)ccc1Nc1ncc2c(n1)N(C)c1ccccc1C(=O)N2C	Criterion met
O=C1CCC[C@@H]2[C@H]3CCC[N+]4([O-])CCC[C@@H](CN12)[C@@H]34 (some centres not stated) [Oxymatrine (Matrine N-oxide)]	Criterion not met
C[C@]1(c2nc3c(C(N)=O)cccc3[nH]2)CCCN1	Criterion not met

Given COc1c(O)c(C)cc2c1C(=O)c1c(O)cccc1C2=O , is recorded cell viability strictly lower than 90%?
Criterion not met

Record Cc1cc([N+](=O)[O-])ccc1NS(=O)(=O)c1cc(Cl)ccc1Cl : is its cell viability strictly below 90%?
Criterion not met

Would you kindly verify if cell viability of O=C1C(Cl)=C(N2CCOCC2)C(=O)N1c1ccc(Cl)c(Cl)c1 is strictly less than 90%?
Criterion not met

Dear reviewer, please state whether CCC[C@@H]1C[C@@H](C(=O)N[C@@H]([C@H]2O[C@H](SC)[C@H](O)[C@@H](O)[C@H]2O)[C@H](C)Cl)N(C)C1 [Clindamycin HCl] has cell viability strictly beneath 90%.
Criterion not met

Say whether its cell viability is strictly beneath 90%. Entry: O=C(CCCCc1ccc2c(c1)OCO2)N1CCCCC1 [Tetrahydropiperine]
Criterion not met

====

Tested on: MOLM14
test.summary: cell viability relative to vehicle control; higher = less cytotoxic
condition.notes: 10 µM; SRSF2 genotype: SRSF2 wt/wt
recorded.metric: cell viability (%)
Give the value in % but do not write % after it.

COc1cc2ncnc(Oc3cccc(NC(=O)Nc4cc(C(C)(C)C(F)(F)F)on4)c3)c2cc1OC	23.7

Report cell viability for Nc1ncnc2n[nH]c(Nc3ccc(F)cc3)c12 please.
71.8

Given the entry CCC(=O)N1CCN(c2ccc(-n3c(=O)ccc4cnc5ccc(-c6cnc7ccccc7c6)cc5c43)cc2C(F)(F)F)CC1 , report its measured cell viability.
36.2

# query: cell viability of entry CC(C(=O)O)c1ccc2c(c1)CC(=O)c1ccccc1S2 (centres undefined)
98.8

Endpoint output: cell viability of COc1ccc(Cl)cc1NC(=O)Nc1cc(C)nc2ccccc12 . Value?
90.1

I'd like to know its cell viability. The compound in question is CC1(C)CC[C@]2(C(=O)O)CC[C@]3(C)C(=CC[C@@H]4[C@@]5(C)CC[C@H](O)[C@@](C)(CO)[C@@H]5CC[C@]43C)[C@@H]2C1
105

Dear colleague, I am looking for the recorded cell viability of the following compound: Cc1ccc2c(c1)C(=O)C1(O)CCN(c3ccccc3)C1=N2 (single isomer, unassigned; (-)) [(-)-Blebbistatin]
60.7

Need cell viability of CCNC(=O)c1noc(-c2cc(Cl)c(O)cc2O)c1-c1ccc(OC)cc1 , thanks.
2.25

Consider the compound CCN(CC)CCOC(=O)c1ccc(N)cc1 [Procaine] and give its measured cell viability.
105

====

Tested on: OCI-AML2
test.summary: cell viability relative to vehicle control; higher = less cytotoxic
condition.notes: 10 µM; SRSF2 genotype: wt/wt
Structures can show the parent of a compound that is named as a salt.
recorded.metric: cell viability (%)
Provide the reading as a plain figure in %.

Given the entry CN1CCN(c2ccc(-c3ccncc3-c3cc(F)c(O)c(F)c3)cc2)CC1 , report its measured cell viability.
91.1

I would be grateful if you could share the reported cell viability for COCCc1ccc(OCC(O)CNC(C)C)cc1 (stereo not drawn) [Metoprolol tartrate] .
106

Can you look up the measured cell viability of OC[C@H]1O[C@@H](c2ccc(F)c(Cc3cc4ccccc4s3)c2)[C@H](O)[C@@H](O)[C@@H]1O for me?
95.1
